Property Name: melting point

CCCCCSc1c[nH]nc1C1=CCCN(C)C1 [Compound 22G] yielded melting point of 100 to 101 °C

CSc1c[nH]nc1C1=CCCN(C)C1 [Compound 22A] yielded melting point of 131.5 °C

CCCCCSc1c[nH]nc1C1CN2CCC1CC2 (stereo not drawn) [Compound 49B] yielded melting point of 142 to 145 °C

CC(C)CCSc1c[nH]nc1C1CN2CCC1CC2 (stereo not drawn) [Compound 49H] yielded melting point of 157 to 159 °C

CCCSc1c[nH]nc1C1=CCCN(C)C1 [Compound 22E] yielded melting point of 111 °C

CSc1c[nH]nc1C1CN2CCC1CC2 (stereo not drawn) [Compound 49C] yielded melting point of 145 to 147 °C

###

# Assayed System: Muscarine M4 (GPCR-A-MA-ACH M4) (Homo sapiens, UniProt P08173)
# Construct: expressed in transfected cells; host or cells: CHO cells
# Sequence (P08173 whole entry): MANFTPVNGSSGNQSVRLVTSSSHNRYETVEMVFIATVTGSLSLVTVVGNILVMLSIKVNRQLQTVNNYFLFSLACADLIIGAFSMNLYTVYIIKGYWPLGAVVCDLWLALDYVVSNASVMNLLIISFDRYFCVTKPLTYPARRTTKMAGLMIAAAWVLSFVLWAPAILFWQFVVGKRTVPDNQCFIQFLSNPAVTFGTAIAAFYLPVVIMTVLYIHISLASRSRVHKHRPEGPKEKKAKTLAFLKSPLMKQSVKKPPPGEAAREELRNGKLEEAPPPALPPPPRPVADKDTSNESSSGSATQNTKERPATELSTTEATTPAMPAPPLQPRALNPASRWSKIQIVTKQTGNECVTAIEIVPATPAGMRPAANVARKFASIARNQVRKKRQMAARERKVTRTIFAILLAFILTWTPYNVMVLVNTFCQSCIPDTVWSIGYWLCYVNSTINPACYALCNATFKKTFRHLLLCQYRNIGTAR
# Protocol Notes: Muscarine M4 receptor binding, 3H-Oxotremorine
Checkbox rule: Ki lower than 0.1 µM = satisfied; Ki not lower than 0.1 µM = not satisfied.

[ask] Input CCCCOc1c[nH]nc1C1CN2CCC1CC2 (stereo not shown) [Compound 52A] ; condition: Ki strictly below 0.1 µM. Does it hold?
[reply] not satisfied

[ask] Input CCCCCCSc1c[nH]nc1C1CN2CCC1CC2 (stereo not shown) [Compound 49F] ; condition: Ki strictly below 0.1 µM. Does it hold?
[reply] satisfied

[ask] Input CCCCCOc1c[nH]nc1C1CN2CCC1CC2 (stereo not shown) [Compound 52C] ; condition: Ki strictly below 0.1 µM. Does it hold?
[reply] satisfied

[ask] Input CCCCSc1c[nH]nc1[C@@H]1CN2CCC[C@H]1C2 (relative stereo) [Compound 60B] ; condition: Ki strictly below 0.1 µM. Does it hold?
[reply] not satisfied

[ask] Input FC(F)=CCCSc1c[nH]nc1C1CN2CCC1CC2 (stereo not shown) [Compound 49I] ; condition: Ki strictly below 0.1 µM. Does it hold?
[reply] satisfied

[ask] Input "Ic1c[nH]nc1[C@@H]1CN2CCC[C@H]1C2" ; condition: Ki strictly below 0.1 µM. Does it hold?
[reply] not satisfied

[ask] Input CCSc1c[nH]nc1C1CN2CCC1CC2 (stereo not shown) [Compound 49D] ; condition: Ki strictly below 0.1 µM. Does it hold?
[reply] not satisfied

[ask] Input CC(C)CCSc1c[nH]nc1C1CN2CCC1CC2 (stereo not shown) [Compound 49H] ; condition: Ki strictly below 0.1 µM. Does it hold?
[reply] satisfied

[ask] Input CCCCCSc1c[nH]nc1C1CN2CCC1CC2 (stereo not shown) [Compound 49B] ; condition: Ki strictly below 0.1 µM. Does it hold?
[reply] satisfied

[ask] Input CCCOc1c[nH]nc1C1CN2CCC1CC2 (stereo not shown) [Compound 52B] ; condition: Ki strictly below 0.1 µM. Does it hold?
[reply] satisfied

###

# Assayed System: Muscarine M4 (GPCR-A-MA-ACH M4) (Homo sapiens)
# Construct: expressed in transfected cells; host or cells: CHO cells
# Protocol Notes: Muscarine M4 receptor binding, 3H-4DAMP
# Experimental Conditions: human M4, CHO cells, ligand 0.2 nM, 60 min/22° C., read-out: RB Musc. M4 3H-DAMP pKi (converted)
Property Name: Ki (nM)
Numbers only here, please. The scale is nM.

CCCCOc1c[nH]nc1C1CN2CCC1CC2 (stereo not shown) [Compound 52A] yielded Ki of 251

CCCOc1c[nH]nc1C1CN2CCC1CC2 (stereo not shown) [Compound 52B] yielded Ki of 126

CN1CCC=C(c2n[nH]cc2SCCCCCSc2c[nH]nc2C2=CCCN(C)C2)C1 [Compound 22C] yielded Ki of 63.1

FC(F)=CCCSc1c[nH]nc1C1CN2CCC1CC2 (stereo not shown) [Compound 49I] yielded Ki of 63.1

CCCCCCOc1c[nH]nc1C1=CCCN(C)C1 [Compound 33B] yielded Ki of 316

CCCCCOc1c[nH]nc1C1CN2CCC1CC2 (stereo not shown) [Compound 52C] yielded Ki of 251

CN1CCC=C(c2n[nH]cc2SCc2ccco2)C1 [Compound 22M] yielded Ki of 398

CN1CCC=C(c2n[nH]cc2SCc2ccccc2)C1 [Compound 22N] yielded Ki of 251

CC(C)CCSc1c[nH]nc1C1CN2CCC1CC2 (stereo not shown) [Compound 49H] yielded Ki of 39.8

CCCCCCC=Cc1conc1C1=CCCN(C)C1 [Compound 68B] yielded Ki of 1000

###

# Assayed System: Muscarine M2 (GPCR-A-MA-ACH M2) (Homo sapiens, UniProt P08172)
# Construct: expressed in transfected cells; host or cells: CHO cells
# Sequence (P08172 whole entry): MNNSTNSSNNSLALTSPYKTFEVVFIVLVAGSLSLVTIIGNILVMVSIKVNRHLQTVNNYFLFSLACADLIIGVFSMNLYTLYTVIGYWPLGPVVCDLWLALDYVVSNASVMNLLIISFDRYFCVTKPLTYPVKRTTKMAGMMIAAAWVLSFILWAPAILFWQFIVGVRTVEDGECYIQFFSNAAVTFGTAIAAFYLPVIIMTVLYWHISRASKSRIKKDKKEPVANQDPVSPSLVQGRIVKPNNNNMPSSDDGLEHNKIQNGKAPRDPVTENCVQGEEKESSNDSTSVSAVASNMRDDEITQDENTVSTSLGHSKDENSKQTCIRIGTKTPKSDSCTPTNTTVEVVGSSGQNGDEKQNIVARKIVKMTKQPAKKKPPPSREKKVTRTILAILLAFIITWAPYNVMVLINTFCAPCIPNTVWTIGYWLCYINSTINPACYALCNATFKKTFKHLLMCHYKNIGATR
# Protocol Notes: Muscarine M2 receptor binding
Please go through the items and note down their Ki.
Numbers only here, please. The scale is nM.

CCCCCCSc1c[nH]nc1C1CN2CCC1CC2 (stereo not drawn) [Compound 49F] yielded Ki of 398

CCCCCSc1c[nH]nc1C1CN2CCC1CC2 (stereo not drawn) [Compound 49B] yielded Ki of 631

CCCSc1c[nH]nc1C1CN2CCC1CC2 (stereo not drawn) [Compound 49E] yielded Ki of 501

CCCCOc1c[nH]nc1C1CN2CCC1CC2 (stereo not drawn) [Compound 52A] yielded Ki of 3980

CCCOc1c[nH]nc1C1CN2CCC1CC2 (stereo not drawn) [Compound 52B] yielded Ki of 1260

CCCCCOc1c[nH]nc1C1CN2CCC1CC2 (stereo not drawn) [Compound 52C] yielded Ki of 2510

###

# Assayed System: Muscarine M4 (GPCR-A-MA-ACH M4) (Homo sapiens)
# Construct: expressed in transfected cells; host or cells: CHO cells
# Protocol Notes: Muscarine M4 receptor binding, 3H-Oxotremorine
# Experimental Conditions: human M4, CHO cells; receptor binding, ligand 6 nM, 30 min/25° C.; read-out: RB Musc. M4 3H-Oxotremorine pKi (converted)
Property Name: Ki

COCCOCCSc1c[nH]nc1C1=CCCN(C)C1 [Compound 22P] yielded Ki of 6310 nM

CCCCCCSc1c[nH]nc1C1=CCCN(C)C1 [Compound 22H] yielded Ki of 126 nM

"CCCC(=O)Nc1c[nH]nc1C1=CCCN(C)C1" yielded Ki of > 10000 nM

CN1CCC=C(c2n[nH]cc2OCCCc2ccccc2)C1 [Compound 33A] yielded Ki of 501 nM

CCCCCSc1nc[nH]c1C1=CCCN(C)C1 [Compound 76A] yielded Ki of 631 nM

CN1CCC=C(c2n[nH]cc2SCC=Cc2ccccc2)C1 [Compound 22K] yielded Ki of 398 nM

CCCCCOc1c[nH]nc1C1=CCCN(C)C1 [Compound 33G] yielded Ki of 126 nM

CCCCCCOc1c[nH]nc1C1=CCCN(C)C1 [Compound 33B] yielded Ki of 200 nM

CCSc1c[nH]nc1C1=CCCN(C)C1 [Compound 22D] yielded Ki of 316 nM

CCCCSc1c[nH]nc1C1=CCCN(C)C1 [Compound 22F] yielded Ki of 63.1 nM

CCCCCC#Cc1c[nH]nc1C1=CCCN(C)C1 [Compound 45B] yielded Ki of 501 nM

###

# Assayed System: Muscarine M3 (GPCR-A-MA-ACH M3) (Homo sapiens, UniProt P20309)
# Construct: expressed in transfected cells; host or cells: CHO cells
# Sequence (P20309 whole entry): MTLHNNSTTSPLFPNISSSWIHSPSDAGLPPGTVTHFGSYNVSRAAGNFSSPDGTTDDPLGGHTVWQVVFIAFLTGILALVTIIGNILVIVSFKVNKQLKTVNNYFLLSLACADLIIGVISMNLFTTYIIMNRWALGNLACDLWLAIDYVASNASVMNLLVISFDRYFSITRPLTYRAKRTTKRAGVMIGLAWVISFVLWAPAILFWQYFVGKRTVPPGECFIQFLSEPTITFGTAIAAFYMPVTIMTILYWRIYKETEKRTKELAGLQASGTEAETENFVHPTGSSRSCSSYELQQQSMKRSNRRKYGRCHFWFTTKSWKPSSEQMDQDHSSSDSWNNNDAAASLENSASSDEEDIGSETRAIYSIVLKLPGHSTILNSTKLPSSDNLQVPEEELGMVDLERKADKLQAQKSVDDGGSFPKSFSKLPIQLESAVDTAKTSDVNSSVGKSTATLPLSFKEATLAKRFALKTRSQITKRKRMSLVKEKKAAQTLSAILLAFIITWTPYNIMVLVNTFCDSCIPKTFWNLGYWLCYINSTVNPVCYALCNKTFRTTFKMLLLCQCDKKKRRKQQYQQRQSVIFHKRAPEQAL
# Protocol Notes: Muscarine M3 receptor binding
Property Name: Ki (nM)
Numbers only here, please. The scale is nM.

CCCCOc1c[nH]nc1C1CN2CCC1CC2 (stereo not drawn) [Compound 52A] yielded Ki of 794

CCCCCCSc1c[nH]nc1C1CN2CCC1CC2 (stereo not drawn) [Compound 49F] yielded Ki of 100

CCCSc1c[nH]nc1C1CN2CCC1CC2 (stereo not drawn) [Compound 49E] yielded Ki of 126

CCCCCSc1c[nH]nc1C1CN2CCC1CC2 (stereo not drawn) [Compound 49B] yielded Ki of 63.1

CCCCCOc1c[nH]nc1C1CN2CCC1CC2 (stereo not drawn) [Compound 52C] yielded Ki of 631

CCCOc1c[nH]nc1C1CN2CCC1CC2 (stereo not drawn) [Compound 52B] yielded Ki of 316

###

# Assayed System: Muscarine M4 (GPCR-A-MA-ACH M4) (Homo sapiens)
# Construct: expressed in transfected cells; host or cells: CHO cells
# Protocol Notes: Muscarine M4 receptor binding, 3H-4DAMP
# Experimental Conditions: human M4, CHO cells, ligand 0.2 nM, 60 min/22° C., read-out: RB Musc. M4 3H-DAMP pKi (converted)
Checkbox rule: Ki lower than 300 nM = rule met; Ki not lower than 300 nM = rule not met.

[ask] Input CN1CCC=C(c2n[nH]cc2SCCCC(F)(F)F)C1 [Compound 22B] ; condition: Ki strictly below 300 nM. Does it hold?
[reply] rule met

[ask] Input CSc1c[nH]nc1C1=CCCN(C)C1 [Compound 22A] ; condition: Ki strictly below 300 nM. Does it hold?
[reply] rule not met

[ask] Input C=CCSc1c[nH]nc1C1=CCCN(C)C1 [Compound 22Q] ; condition: Ki strictly below 300 nM. Does it hold?
[reply] rule not met

[ask] Input CN1CCC=C(c2n[nH]cc2SCCCc2ccccc2)C1 [Compound 22I] ; condition: Ki strictly below 300 nM. Does it hold?
[reply] rule met

[ask] Input CCCCCCCOc1c[nH]nc1C1=CCCN(C)C1 [Compound 33E] ; condition: Ki strictly below 300 nM. Does it hold?
[reply] rule not met

[ask] Input C=CCCOc1c[nH]nc1C1=CCCN(C)C1 [Compound 33D] ; condition: Ki strictly below 300 nM. Does it hold?
[reply] rule not met

[ask] Input C=CCCCOc1c[nH]nc1C1=CCCN(C)C1 [Compound 33F] ; condition: Ki strictly below 300 nM. Does it hold?
[reply] rule not met

[ask] Input CCCCSc1c[nH]nc1C1=CCCN(C)C1 [Compound 22F] ; condition: Ki strictly below 300 nM. Does it hold?
[reply] rule met

[ask] Input CN1CCC=C(c2n[nH]cc2SCCC=C(F)F)C1 [Compound 22J] ; condition: Ki strictly below 300 nM. Does it hold?
[reply] rule met

[ask] Input CSc1c[nH]nc1C1CN2CCC1CC2 (centres unmarked) [Compound 49C] ; condition: Ki strictly below 300 nM. Does it hold?
[reply] rule met

[ask] Input CCCCSc1conc1C1=CCCN(C)C1 [Compound 66A] ; condition: Ki strictly below 300 nM. Does it hold?
[reply] rule met
